Target: CYP1A2 (Homo sapiens (Human), UniProt P05177)
Sequence (P05177 whole entry): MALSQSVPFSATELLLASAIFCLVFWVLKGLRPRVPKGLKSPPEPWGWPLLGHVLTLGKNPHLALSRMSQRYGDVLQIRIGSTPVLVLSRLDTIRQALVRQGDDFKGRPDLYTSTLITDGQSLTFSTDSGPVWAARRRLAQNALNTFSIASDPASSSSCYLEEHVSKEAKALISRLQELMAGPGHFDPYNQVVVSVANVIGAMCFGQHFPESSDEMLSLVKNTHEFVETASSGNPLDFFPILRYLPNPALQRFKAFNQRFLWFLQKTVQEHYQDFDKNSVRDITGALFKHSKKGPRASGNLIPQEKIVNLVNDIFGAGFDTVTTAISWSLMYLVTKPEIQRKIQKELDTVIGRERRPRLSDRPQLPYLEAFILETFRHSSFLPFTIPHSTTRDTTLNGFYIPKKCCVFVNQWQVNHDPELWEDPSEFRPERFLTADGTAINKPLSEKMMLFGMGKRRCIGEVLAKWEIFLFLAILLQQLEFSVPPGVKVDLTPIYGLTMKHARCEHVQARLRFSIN
Experiment: in vitro
attribute-measured: inhibition at 10 µM (%)
Numbers only here, please. The scale is %.

compound | inhibition at 10 µM / %
COc1cc(-c2nn(CCN3CCC(N4CCCC4)CC3)c3ncnc(N)c23)ccc1NC(=O)OC(C)(C)C [Compound 518] | 6.9

Given the compound COc1cc(-c2nn(CCN3CCC(N4CCCCC4)CC3)c3ncnc(N)c23)ccc1NC(=O)OC(C)(C)C [Compound 519] and test system CYP1A2 (Homo sapiens (Human), UniProt P05177), the measured inhibition at 10 µM is -1.6

Given the compound COc1cc(-c2nn(CCN3CCC(N(C)C)CC3)c3ncnc(N)c23)ccc1NCc1ccccc1 [Compound 533] and test system CYP1A2 (Homo sapiens (Human), UniProt P05177), the measured inhibition at 10 µM is 8.3

Given the compound COc1cc(-c2nn(CCN3CCC(N(C)C)CC3)c3ncnc(N)c23)ccc1CC(=O)OC(C)(C)C [Compound 565] and test system CYP1A2 (Homo sapiens (Human), UniProt P05177), the measured inhibition at 10 µM is 4.3
